Just for reference, ChEMBL document CHEMBL1142301 is where these values come from.

assay: Agonist activity at human cADPR receptor in sea urchin egg homogenates assessed as stimulation of calcium release; type: functional, tissue-based, Lytechinus pictus
observed_property: EC50 (µM)
Provide only the numeric value, understood in µM.

Report EC50 for Nc1nc2c(N)[n+]3cnc2n1[C@@H]1O[C@H](COP(=O)(O)OP(=O)([O-])OC[C@H]2O[C@@H]3[C@H](O)[C@@H]2O)[C@@H](O)[C@H]1O please.
89

----------
experiment: Antagonist activity at cADPR receptor in sea urchin egg homogenates assessed as inhibition of calcium release; format: functional, tissue-based, Lytechinus pictus
observed_property: IC50 (nM)
Give a bare numeral; the unit nM is implied.

Name the reported IC50 value associated with the compound Nc1nc2c(N)[n+]3cnc2n1[C@H]1C[C@H](O)[C@@H](COP(=O)(O)OP(=O)([O-])OC[C@H]2O[C@@H]3[C@H](O)[C@@H]2O)O1
220

Now examine the next entry.
Given the entry Nc1nc2c(N)[n+]3cnc2n1[C@@H]1O[C@H](COP(=O)(O)OP(=O)([O-])OC[C@H]2O[C@@H]3[C@H](O)[C@@H]2O)[C@@H](O)[C@H]1O , report its measured IC50.
105
